Recorded pIC50 by entry
- System: KB human tumor cells (RFC/FRα/PCFT)
- TEST_DESCRIPTION: growth inhibition, KB tumor cells
- Assay type: cell-based
- CONDITION_SET: Section IV Table 1; +FA; read-out: KB (+FA) IC50
pIC50: −log10 of the molar value.

The value of pIC50 recorded for `Nc1nc2[nH]c(CCOc3cccc(C(=O)N[C@@H](CCC(=O)O)C(=O)O)c3)cc2c(=O)[nH]1` when tested on KB human tumor cells (RFC/FRα/PCFT) reads < 6.00

Known value: KB human tumor cells (RFC/FRα/PCFT) pIC50 of the molecule `Nc1nc2[nH]c(CCNc3cccc(C(=O)N[C@@H](CCC(=O)O)C(=O)O)c3)cc2c(=O)[nH]1` equals < 6.00

---

- Test system: RT16 CHO cells expressing human FRα
- TEST_DESCRIPTION: growth inhibition, CHO RT16 (FRα)
- Format: cell-based, Chinese hamster
- CONDITION_SET: Cricetulus griseus, RT16, read-out: R16 IC50 (FRα)
OBSERVABLE: IC50 (nM)
Give your result in nM as a bare value.

For the molecule `CSc1ccc(N(C)c2nc(C)nc3cc[nH]c23)cc1` , the measured IC50 on RT16 CHO cells expressing human FRα was 1.72

---

- Test system: cellular microtubules in A-10 cells
- TEST_DESCRIPTION: cellular microtubule depolymerization, cell-based phenotypic assay
- CONDITION_SET: Rattus norvegicus, A10, read-out: EC50 in A-10 cells (Loss of cellular microtubules)
OBSERVABLE: EC50 (nM)
Numbers only here, please. The scale is nM.

Value of EC50 reported for the compound `CSc1ccc(N(C)c2nc(C)nc3cc[nH]c23)cc1` is 10
